tested on: Laodelphax striatellus; test: Insecticidal activity against larvae of Laodelphax striatella (small brown planthopper) fed with compound solution dipped rice seedling measured after 5 days by test tube method; assay type: functional; details: 120 h
readout.label: LC50 (µg/mL)
Kindly provide the numeric value in µg/mL only, without the unit symbol.

**Q:** Requested read-out: LC50. Entry: CC(SC/C(=C1/NCCN1Cc1ccc(Cl)nc1)[N+](=O)[O-])c1ccc(Cl)cc1 (stereo not given)
**A:** 1

**Q:** Entry CCSC/C(=C1/NCCN1Cc1ccc(Cl)nc1)[N+](=O)[O-] please
**A:** 0.41

**Q:** Entry O=[N+]([O-])/C(CSc1ccccc1)=C1\NCCN1Cc1ccc(Cl)nc1 please
**A:** 0.11

**Q:** Entry CCOC(=O)CSC/C(=C1/NCCN1Cc1ccc(Cl)nc1)[N+](=O)[O-] please
**A:** 0.3
